Catalogue of melting point values

{"Compound": "CC(=O)Nc1ccccc1C(=O)c1ccccc1", "Value kind": "melting point", "Result": "88 °C"}
{"Compound": "CCOC(=O)c1c(NC(=O)CN2CCN(C(=O)OCC)CC2)sc2c1CCCC2", "Value kind": "melting point", "Result": "122 to 123 °C"}
{"Compound": "O=C(O)c1ccc(N2C(=O)C3C(C(=O)c4ccc(Cl)cc4)=NN(c4ccccc4)C3C2=O)cc1 (configuration not stated)", "Value kind": "melting point", "Result": "285 °C"}
{"Compound": "Cn1c(=O)c2[nH]c(=O)[nH]c2n(C)c1=O", "Value kind": "melting point", "Result": "412 to 415 °C"}
{"Compound": "COc1ccc2c(CBr)cc(=O)oc2c1", "Value kind": "melting point", "Result": "212 to 217 °C"}
{"Compound": "NC(=S)NCCc1ccccc1", "Value kind": "melting point", "Result": "150 to 152 °C"}
{"Compound": "N#CC(=S)Nc1ccccc1", "Value kind": "melting point", "Result": "75 to 80 °C"}
{"Compound": "Cc1cc(C)c(CO)c(C)c1", "Value kind": "melting point", "Result": "87 °C"}
{"Compound": "CC(C)n1nnc2cc(C(=O)Cl)ccc21", "Value kind": "melting point", "Result": "140 to 143 °C"}
{"Compound": "CCOC(=O)Cc1nn(CC(N)=S)c(=O)c2ccccc12", "Value kind": "melting point", "Result": "150 to 152 °C"}

// melting point lookup, key: CC(=O)Nc1ccc(-c2csc(N)n2)cc1
250 °C

GET /values?readout=melting point&item= CS(=O)(=O)c1scc(-c2ccccc2)c1C#N
164 to 166 °C

Give its melting point value. Item: COC(=O)c1ccc(OCNC(=O)c2ccccc2)cc1
142 to 143 °C
